Origin of measurements: patent US20210261937

We begin with a simple list: items and their reported cleavage of the SUMO fusion protein.
# target_or_system: bdSUMO Mut13-MBP fusion protein
measurement_name: cleavage of the SUMO fusion protein

[[record]]
protein = "bdSENP1^Muti (protein) PFVPLTDEDEDNVRHALGGRKKSETLSVHEASHIVITREILQCLNDKEWLNDEVINLYLELLKERELREPNKFLKCHFFNTFFYKKLINGGYDYKSVREWTTRRKLGYNLIDCDKIFVPIHKDVHWCLAVINIKEKKFQYLDSLGYMDMKALRILAKYLVDEVKDKSGKQIDVHAWKQEGVQNLPLQENGWDCGMFMLKYIDFYSRDMELVFGQKHMSYFRRRTAKEILDLKAG"
measurement_name = "cleavage of the SUMO fusion protein"
measurement = "< 75 % cleavage"

[[record]]
protein = "bdSENP1^MutG (protein) PFVPLTDEDEDNVRHALGGRKSSETLSVHEASHIVITREILQCLNDKEWLNDEVINLYLELLKERELREPNKFLKCHFFNTFFYKKLINGGYDYKSVRRWTTVKLGYNLIDCDKIFVPIHKDVHWCLAVINIKEKKFQYLDSLGYMDMKALRILAKYLVDEVKDKSGKQIDVHAWKQEGVQNLPLQENGWDCGMFMLKYIDFYSRDMELVFGQKHMSYFRRRTAKEILDLKAG"
measurement_name = "cleavage of the SUMO fusion protein"
measurement = "< 75 % cleavage"

